- study system: Aβ (Homo sapiens, UniProt P05067)
- Construct: Aβ peptide: Aβ (1-40) 95% purity (American Peptide Company, Inc, Sunnyvale, Calif. USA)
- Sequence (P05067 672-711 limits assumed): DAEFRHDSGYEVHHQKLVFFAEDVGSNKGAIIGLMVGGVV
- method: circular dichroism (CD) assay, inhibition of fibrillogenesis
- Format: biochemical
- Design: key: “+” = active; “−” = inactive; “pr” = promoting
- stated conditions: soluble Aβ, 37° C., 190-240 nm
reported metric: CD

1) CCc1ccc(CCc2ccc(-c3nc4ccc(C(=N)N)cc4[nH]3)cc2)cc1 [Compound 125]: −
2) CC(C)NC(=N)c1ccc(COc2cccc3c(OCc4ccc(C(=N)NC(C)C)cc4)cccc23)cc1 [Compound 61]: +
3) N=C(N)c1ccc(-c2coc(-c3ccc(C(=N)N)cc3)c2)cc1 [Compound 120]: −
4) N=C(N)c1ccc2nc(-c3ccc(CCc4ccc(-c5nc6ccc(C(=N)N)cc6[nH]5)s4)cc3)[nH]c2c1 [Compound 116]: −
5) N=C(N)c1ccc(-c2cc3ccc(C(=N)N)cc3[nH]2)cc1 [Compound 28]: +
6) N=C(N)c1ccc(OCOc2ccc(C(=N)N)cc2)cc1 [Compound 9]: +

Please examine the following record next.
Value wanted: CD (Aβ (Homo sapiens, UniProt P05067)) of entry COc1cc(NC(=N)N)ccc1-c1ccc(-c2ccc(NC(=N)N)cc2OC)o1 [Compound 121] −
